# run-description: qHTS assay to identify small molecule antagonists of the sonic hedgehog signaling (Shh) pathway (AID 1259369); also: nearly all actives have a fitted effect of over 45% in size
# experimental-setup: NIH/3T3 Gli1-Luc reporter, Shh antagonist, luminescence 24 h; series mostly up to 92.4 µM
# Source text: U.S. Tox21 Program National Center for Advancing Translational Sciences [NCATS] NIH Chemical Genomics Center [NCGC] U.S. Environmental Protection Agency [EPA] National Institutes of Environmental Health Sciences [NIEHS] National Toxicology Program [NTP] U.S. Food and Drug Administration [FDA] Tox21 Assay Overview: The sonic hedgehog (Shh) pathway is essential for normal embryonic development. Dysregulation of the Shh pathway can cause severe developmental defects in organs. […]
Results filed as inconclusive are left out. The source made the active and inactive calls. Calls follow the shape of the full dose curve.
Allowed answers: yes (1) = active, no (0) = inactive

Data request: What outcome does the record of this test show for "CCN(CC)CCc1nc(-c2ccccc2)no1" ?
Data returned: no (0)

Data request: What outcome does the record of this test show for "C=C(C)C(=O)OCCN(C)C" ?
Data returned: no (0)

Data request: What outcome does the record of this test show for "CC(=O)Nc1ccc(/C=N/NC(N)=S)cc1" ?
Data returned: no (0)

Data request: What outcome does the record of this test show for "O=C1[C@H](CC[C@H](O)c2ccc(F)cc2)[C@@H](c2ccc(O)cc2)N1c1ccc(F)cc1" ?
Data returned: no (0)

Data request: What outcome does the record of this test show for "Cc1c(Cn2ccnc2)c2ccccc2n1CCC(=O)O" ?
Data returned: no (0)

Data request: What outcome does the record of this test show for "CC(C)(C)c1ccc(S)cc1" ?
Data returned: no (0)

Data request: What outcome does the record of this test show for "Cc1cc(O)ccc1N" ?
Data returned: yes (1)

Data request: What outcome does the record of this test show for "CCCCOC(=O)/C=C\C(=O)OCCCC" ?
Data returned: no (0)

Data request: What outcome does the record of this test show for Cn1c(=O)c2c(ncn2CC(O)CO)n(C)c1=O (stereo unspecified) ?
Data returned: no (0)

Data request: What outcome does the record of this test show for "CCCCCC/C=C/C=O" ?
Data returned: no (0)

Data request: What outcome does the record of this test show for "CC[C@H](C)[C@@H](C(=O)O)n1sc2ccccc2c1=O" ?
Data returned: yes (1)

Data request: What outcome does the record of this test show for "CCCCOc1cc(C(=O)OCCN(CC)CC)ccc1N" ?
Data returned: no (0)

Data request: What outcome does the record of this test show for "N#Cc1cc2ccccc2c2ccccc12" ?
Data returned: no (0)

Data request: What outcome does the record of this test show for "CC(=O)c1c(C)c([N+](=O)[O-])c(C(C)(C)C)c([N+](=O)[O-])c1C" ?
Data returned: no (0)

Data request: What outcome does the record of this test show for "C[C@H](CCC(=O)O)[C@H]1CC[C@H]2[C@@H]3[C@H](O)C[C@@H]4C[C@H](O)CC[C@]4(C)[C@H]3CC[C@]12C" ?
Data returned: no (0)

Data request: What outcome does the record of this test show for CC(C(=O)O)c1ccc(C(=O)c2ccccc2)s1 (stereo unspecified) ?
Data returned: no (0)

Data request: What outcome does the record of this test show for "C=CCCCCCC" ?
Data returned: yes (1)

Data request: What outcome does the record of this test show for "CC(=O)O[C@H]1C[C@@H]2CC[C@@H]3[C@H](CC[C@@]4(C)[C@H]3C[C@H]([N+]3(C)CCCCC3)[C@@H]4OC(C)=O)[C@@]2(C)C[C@@H]1N1CCCCC1" ?
Data returned: no (0)

Data request: What outcome does the record of this test show for "CCCC[C@H]1CN(CC2CCOCC2)C(=O)OC12CCN(C1(C)CCN(C(=O)c3c(C)ncnc3C)CC1)CC2" ?
Data returned: no (0)

Data request: What outcome does the record of this test show for "Nc1ccc(C(=O)Nc2ccccc2N)cc1" ?
Data returned: no (0)

Data request: What outcome does the record of this test show for "CCCc1ccccc1" ?
Data returned: no (0)

Data request: What outcome does the record of this test show for CCCCOC(O)CC (stereo unspecified) ?
Data returned: no (0)

Data request: What outcome does the record of this test show for "N#CCc1cccc(C(F)(F)F)c1" ?
Data returned: no (0)

Data request: What outcome does the record of this test show for CC(C)CCCC(C)CCO (stereo unspecified) ?
Data returned: yes (1)

Data request: What outcome does the record of this test show for "NCc1ccccc1" ?
Data returned: no (0)

Data request: What outcome does the record of this test show for "COc1ccc([C@@H]2Sc3ccccc3N(CCN(C)C)C(=O)[C@@H]2OC(C)=O)cc1" ?
Data returned: no (0)
